- System: T-47D breast
- assay.text: NCI-60 one-dose screen, 48 h (100 = growth as untreated, 0 = no growth, -100 = all killed)
- measurement.parameters: 10 µM unless noted
Compounds without any hit were thinned out: in the full panel of roughly 83,000, 20% have a hit. The source made the active and inactive calls. Rule for the calls: active = growth percent below 10; inactive = the rest.
// reported growth per item
quantity.kind: growth

| molecule | reported |
| --- | --- |
| COc1cccc(/C=C/c2nc3ccccc3c(=O)n2CC(=O)Nc2ccc(Cl)cc2)c1 | 6.29% (active) |
| NS(=O)(=O)c1ccc(-n2cc(-c3cccc(NC(=O)c4cc(Cl)cc(Cl)c4)c3)nn2)cc1 | 48% (inactive) |
| CCOP(=O)(OCCCl)c1nc(-c2ccc(C)cc2)oc1NCc1ccccc1 (stereo not given) | 48.1% (inactive) |
| O=C(c1ccc(Cl)cc1)c1ccc(OCCCN2CCN(c3ccncc3)CC2)cc1 | 29% (inactive) |
| C=C1CCC2C3(C)COC(c4ccc(F)cc4)OC3CCC2(C)C1C/C=C1/C(=O)OCC1O (stereo not given) | -16.5% (active) |
| COc1ccc(C(SCCNCc2cc(N(C)C)ccn2)(c2ccccc2)c2ccccc2)cc1 | -9.47% (active) |
| CC(=O)OC[C@@]1(C)C2CC[C@]3(C)C(CC=C4C5CC(C)(C)CC[C@]5(C(=O)Nc5cccc(C)c5)CC[C@]43C)[C@@]2(C)C[C@@H](OC(C)=O)[C@@H]1OC(C)=O (stereo not given in full) | 24.3% (inactive) |
| Cc1ccc(-n2c(-c3cc4ccccc4nc3Cl)noc2=O)cc1 | 63.9% (inactive) |
| O=C(COc1ccc(NC(=O)Nc2ccc(Cl)c(Cl)c2)cc1)N=Nc1c(O)[nH]c2ccccc12 | 11.6% (inactive) |
| N=C1N=C(SCc2nc3ccccc3[nH]2)NC(=O)/C1=C/c1ccc(Cl)cc1 | 93.2% (inactive) |
| C=Cn1cc(C(=O)O)c(=O)c2cc(F)c(N3CCN(c4nccc(-c5nccs5)n4)CC3)cc21 | -1.23% (active) |
| O=C(CSc1nc2ccccc2c(=O)[nH]1)NCCN1CCCCC1 | 100% (inactive) |
| Cc1ccc2c(c1)nc(-c1ccccc1)n2CC(=O)N=Nc1c(O)[nH]c2ccc(Br)cc12 | -46% (active) |
| CCCCSc1nc(NCCc2c[nH]c3ccccc23)c(C#N)c(-c2ccccc2)n1 | -0.0859% (active) |
| C=C1CCC2C3(C)COC(c4ccco4)OC3CCC2(C)C1CC(Sc1ccccc1)C1=CCOC1=O (stereo not given) | 77.3% (inactive) |
| Cn1cc(-c2cc(N)n3nc(-c4cn(C)c5ccccc45)cc3n2)c2cc(Cl)ccc21 | -30.9% (active) |
| CC(=O)Nc1ccc(C(=O)NC(=S)Nc2ccc(S(N)(=O)=O)cc2)cc1 | 73.8% (inactive) |
| C=C1CCC2C3(C)COC(c4ccc(F)cc4)OC3CCC2(C)C1CC(O)C1=CCOC1=O (stereo not given) | 31.6% (inactive) |
| CN1CCN(c2ccc(C(=O)/C=C/c3ccc(Br)cc3)cc2)CC1 | 15.2% (inactive) |
| C#CCOc1cc(N(CC)CC)ccc1C(C(=O)NC(C)(C)C)N(C(=O)C1CCc2cc(F)ccc2O1)c1ccccc1Br (stereo not given) | 55.6% (inactive) |
